FYI, the data here is from ChEMBL document CHEMBL1155870.

Entries with their measured pEC50, system Peroxisome proliferator-activated receptor gamma (Homo sapiens, UniProt P37231):
pEC50: −log10 of the molar value.
measurement name: pEC50

1) Cc1ccc(-c2nc(COc3ccc(C[C@H]4CO[C@@](C)(C(=O)O)OC4)cc3)c(C)o2)s1 = 7.70
2) Cc1ccc(-c2nc(CCOc3ccc(C[C@H]4CO[C@@](C)(C(=O)O)OC4)cc3)c(C)o2)cc1 = 5.86
3) Cc1oc(-c2ccccc2)nc1COc1ccc(C[C@H]2CO[C@@](C)(C(=O)O)OC2)cc1 = 7.02
4) Cc1ccc(-c2nc(CCOc3ccc(C[C@H]4CO[C@@](C)(C(=O)O)OC4)cc3)c(C)o2)s1 = 6.62
5) Cc1ccc(-c2nc(COc3ccc(C[C@H]4CO[C@@](C)(C(=O)O)OC4)cc3)c(C)o2)cc1 = 7.82
6) Cc1oc(C(C)(C)C)nc1CCOc1ccc(C[C@H]2CO[C@@](C)(C(=O)O)OC2)cc1 = 5.30
7) Cc1oc(-c2ccccc2)nc1CCOc1ccc(C[C@H]2CO[C@@](C)(C(=O)O)OC2)cc1 = 5.39

* * *

- test protocol: Half life in Wistar rat at 30 mg/kg, po
- Format: ADME, organism-based
- Set-up: dose 30 mg/kg, route oral
- condition: in vivo
measurement name: half-life (h)

1) Cc1ccc(-c2nc(COc3ccc(C[C@H]4CO[C@@](C)(C(=O)O)OC4)cc3)c(C)o2)cc1 = 2.7

* * *

- assay target: Peroxisome proliferator-activated receptor alpha (Homo sapiens) (UniProt Q07869)
- test protocol: Agonist activity at PPARalpha expressed in human HepG2 cells at 10 uM assessed as induction of receptor transactivation by reporter gene assay relative to control
- Assay type: functional, cell-based
measurement name: fold change (FC)

1) Cc1ccc(-c2nc(CCCOc3ccc(C[C@H]4CO[C@@](C)(C(=O)O)OC4)cc3)c(C)o2)cc1 = 1.8
2) Cc1ccc(-c2nc(CCOc3ccc(C[C@H]4CO[C@@](C)(C(=O)O)OC4)cc3)c(C)o2)cc1 = 6.3
3) Cc1ccc(-c2nc(COc3ccc(C[C@H]4CO[C@@](C)(C(=O)O)OC4)cc3)c(C)o2)s1 = 5.6
4) Cc1ccc(-c2nc(COc3ccc([C@H]4CO[C@@](C)(C(=O)O)OC4)cc3)c(C)o2)cc1 = 2.7

* * *

- test protocol: Cmax in Wistar rat at 30 mg/kg, po
- Assay type: ADME, organism-based
- Design: dose 30 mg/kg, route oral
- condition: in vivo
measurement name: Cmax (µg/mL)

1. Cc1ccc(-c2nc(COc3ccc(C[C@H]4CO[C@@](C)(C(=O)O)OC4)cc3)c(C)o2)cc1 = 54

* * *

- test protocol: Tmax in Wistar rat at 30 mg/kg, po
- Assay type: ADME, organism-based
- Design: dose 30 mg/kg, route oral
- condition: in vivo
measurement name: Tmax (h)

1) Cc1ccc(-c2nc(COc3ccc(C[C@H]4CO[C@@](C)(C(=O)O)OC4)cc3)c(C)o2)cc1 = 1.7

* * *

// values below are reported pEC50
- assay target: Peroxisome proliferator-activated receptor alpha (Homo sapiens)
- Sequence (Q07869 whole entry): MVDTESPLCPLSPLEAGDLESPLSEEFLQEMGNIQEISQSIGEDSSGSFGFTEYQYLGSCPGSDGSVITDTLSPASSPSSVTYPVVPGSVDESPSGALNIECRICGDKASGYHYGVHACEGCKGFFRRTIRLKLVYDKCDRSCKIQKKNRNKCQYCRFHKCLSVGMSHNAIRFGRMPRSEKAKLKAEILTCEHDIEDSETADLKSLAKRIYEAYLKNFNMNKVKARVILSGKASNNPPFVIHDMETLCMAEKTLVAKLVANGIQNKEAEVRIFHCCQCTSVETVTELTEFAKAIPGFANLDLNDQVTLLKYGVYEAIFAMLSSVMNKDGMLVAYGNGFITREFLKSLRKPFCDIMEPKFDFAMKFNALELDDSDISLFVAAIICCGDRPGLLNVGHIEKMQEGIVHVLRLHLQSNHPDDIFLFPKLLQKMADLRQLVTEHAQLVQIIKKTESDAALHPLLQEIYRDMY
- test protocol: Agonist activity at PPARalpha expressed in human HepG2 cells assessed as induction of receptor transactivation by reporter gene assay relative to control
- Type: functional, cell-based
pEC50: −log10 of the molar value.
measurement name: pEC50

1) Cc1oc(C(C)(C)C)nc1CCOc1ccc(C[C@H]2CO[C@@](C)(C(=O)O)OC2)cc1 = 8.38
2) Cc1oc(-c2ccccc2)nc1CCOc1ccc(C[C@H]2CO[C@@](C)(C(=O)O)OC2)cc1 = 9.57
3) Cc1ccc(-c2nc(COc3ccc(C[C@H]4CO[C@@](C)(C(=O)O)OC4)cc3)c(C)o2)s1 = 9.22
4) Cc1ccc(-c2nc(CCOc3ccc(C[C@H]4CO[C@@](C)(C(=O)O)OC4)cc3)c(C)o2)s1 = 10.52
5) Cc1ccc(-c2nc(CCOc3ccc(C[C@H]4CO[C@@](C)(C(=O)O)OC4)cc3)c(C)o2)cc1 = 10.05
6) Cc1ccc(-c2nc(COc3ccc(C[C@H]4CO[C@@](C)(C(=O)O)OC4)cc3)c(C)o2)cc1 = 10.14
7) Cc1oc(-c2ccccc2)nc1COc1ccc(C[C@H]2CO[C@@](C)(C(=O)O)OC2)cc1 = 8.96
